meta.source: the supplement of paper PMC12067926

Reported values of relative growth for individual entries
Tested on: Flavobacterium 2 (Flavobacterium succinicans)
Test: relative growth (AUC of 72 h growth curve relative to DMSO control, dAUC) (ratio); higher = more growth (less inhibition), active = hit call of the paper
Conditions: 20 µM
I only need the number, thanks.

O=C(O)c1nc(Cl)ccc1Cl
0.962
O=C(NC(=O)c1c(F)cccc1F)Nc1ccc(Cl)cc1
0.949

If you can, please state the reported relative growth value of `CO/C=C(/C(=O)OC)c1ccccc1COc1cccc(C(F)(F)F)n1` .
0.962

What relative growth value was documented for this compound, `CCOP(=S)(OCC)Oc1cc(C)nc(C(C)C)n1` ?
0.909

Param item = `N#Cc1c(Cl)c(Cl)c(Cl)c(C#N)c1Cl` ; retrieve measured relative growth.
0.543

Fill blank: measured relative growth of the compound `CCc1cccc(C)c1N(C(=O)CCl)[C@@H](C)COC` is ____.
0.967

Requested field: relative growth. Item: `CC(C)N(C)S(=O)(=O)NC(=O)c1cc(-n2c(=O)cc(C(F)(F)F)n(C)c2=O)c(F)cc1Cl`
0.978
